Measured IN-GCN2 interaction (%) values are reported for all entries that follow.
- target entity: IN-GCN2 interaction (6xHis-IN / GST-GCN2) (UniProt P04585+Q9P2K8)
- Sequence (Q9P2K8 192-1024, other chains not shown): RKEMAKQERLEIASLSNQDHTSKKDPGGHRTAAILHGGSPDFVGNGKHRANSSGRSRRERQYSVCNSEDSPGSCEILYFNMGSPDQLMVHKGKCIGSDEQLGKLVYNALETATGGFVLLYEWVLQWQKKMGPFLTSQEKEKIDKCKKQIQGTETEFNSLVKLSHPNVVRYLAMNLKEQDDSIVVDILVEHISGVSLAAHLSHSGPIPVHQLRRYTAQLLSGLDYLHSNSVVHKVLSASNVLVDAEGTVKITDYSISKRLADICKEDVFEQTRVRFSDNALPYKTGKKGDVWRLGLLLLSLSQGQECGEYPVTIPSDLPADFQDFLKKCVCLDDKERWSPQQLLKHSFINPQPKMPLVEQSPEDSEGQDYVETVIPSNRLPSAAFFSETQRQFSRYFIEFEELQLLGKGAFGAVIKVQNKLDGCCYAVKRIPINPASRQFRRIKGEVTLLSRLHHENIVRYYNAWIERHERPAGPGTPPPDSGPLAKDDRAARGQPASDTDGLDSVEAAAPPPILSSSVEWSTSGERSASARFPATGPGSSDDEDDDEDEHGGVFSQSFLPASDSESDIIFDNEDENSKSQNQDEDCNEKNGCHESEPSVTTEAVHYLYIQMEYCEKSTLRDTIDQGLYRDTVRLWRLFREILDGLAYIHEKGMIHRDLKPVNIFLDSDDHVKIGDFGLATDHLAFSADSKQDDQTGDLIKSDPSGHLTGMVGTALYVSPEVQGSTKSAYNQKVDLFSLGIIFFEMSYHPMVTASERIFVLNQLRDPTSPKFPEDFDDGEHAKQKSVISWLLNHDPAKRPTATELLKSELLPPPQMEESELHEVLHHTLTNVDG
- run description: biochemical
- Format: binding, HIV-1 IN; human GCN2
- reported conditions: screen, single dose 100 µM, single replicate; residual AlphaLISA signal normalized to DMSO control
property: IN-GCN2 interaction (%)

molecule	test result
COC(=O)C1C2CC3c4[nH]c5cc(OC)ccc5c4CCN3CC2CC(OC(=O)CCc2cc(OC)c(OC)c(OC)c2)C1OC (stereo not drawn) [NSC29854]	63.08%
O=c1[nH]cnc2c([C@@H]3O[C@H](CO)[C@@H](O)[C@H]3O)[nH]nc12 [NSC106486]	77.11%
Br.CN1CCc2cc3c(cc2C1)OCO3 [NSC121859]	114.20%
COc1cc2c(c(OC)c1OC)-c1ccc(SC)c(=O)cc1[C@@H](NC(=O)C(F)(F)F)CC2 [NSC320301]	97.92%
CO[C@@H]1/C=C\O[C@]2(C)Oc3c(C)c(O)c4c(O)c(c(CN(C)C)c(O)c4c3C2=O)NC(=O)/C(C)=C\C=C[C@@H](C)[C@@H](O)[C@H](C)[C@@H](O)[C@H](C)[C@H](OC(C)=O)[C@@H]1C [NSC145612]	71.81%
CC(=O)CCCCn1c(=O)c2c(ncn2C)n(C)c1=O [NSC637086]	87.24%
CCN1C[C@]2(COC)[C@H](O)C[C@H](OC)[C@@]34[C@@H]5C[C@@]6(O)[C@H](OC(=O)c7ccccc7)[C@@H]5[C@@](OC(C)=O)([C@@H]([C@H](OC)[C@H]23)[C@@H]14)[C@@H](O)[C@@H]6OC [NSC56464]	148.00%
CC(=O)O[C@H]1C[C@]2(O)[C@@H]3CC[C@@H]4C[C@@H](O)CC[C@]4(C)[C@H]3CC[C@]2(C)[C@H]1C1=CC(=O)OC1 [NSC148790]	114.66%
COC1CC(C)C(OC)c2cc(O)cc(c2O)NC(=O)/C(C)=C\C=C/C(C)C(OC(N)=O)/C(C)=C\C(C)C1OC (stereo not drawn) [NSC330500]	77.16%
CCOC(=O)CCCCCCCCCCCCC1C=CCC1 (stereo not drawn) [NSC38010]	104.59%
CCc1c2c(nc3ccc(OC(=O)N4CCC(N5CCCCC5)CC4)cc13)-c1cc3c(c(=O)n1C2)COC(=O)[C@]3(O)CC [NSC616348]	97.94%
CO[C@H]1[C@@H](O)[C@@H](C)O[C@H](O[C@H]2[C@H](Oc3cccc4c(O)c5c(=O)oc6ccc(C)c7c(=O)oc(c34)c5c67)O[C@H](C)[C@H](O)[C@@H]2O)[C@@H]1O [NSC5159]	121.88%
N=C1C=C(N)C(=O)c2[nH]c(=O)ccc21 [NSC111041]	43.78%
COc1c(OC)c2c3c(ncc(OC)c3c1OC)C(=O)c1ccccc1-2 [NSC785150]	58.33%
COc1cc(/C=N\O)nc(-c2ccccn2)c1 [NSC114341]	45.21%
COc1cc2c(cc1OC)[C@@]13CCN4CC5=CCO[C@H]6CC(=O)N2[C@H]1[C@H]6[C@H]5C[C@]43O [NSC99794]	103.59%
CC[C@H](C)c1occ2c(O)c(C(=O)O)c(=O)cc-2c1C [NSC114344]	113.54%
CC1=CC(O)C(O)C2(C)C1CC1OC(=O)C(O)C3C(C)C(O)C4(O)OCC13C42 (stereo not drawn) [NSC14974]	90.88%
CCCCCCCCCCCCCCCCCCO [NSC5379]	92.43%
OC[C@H]1O[C@@](CO)(O[C@H]2O[C@H](CO)[C@@H](O)[C@H](O)[C@H]2O)[C@@H](O[C@H]2O[C@H](CO)[C@@H](O)[C@H](O)[C@H]2O)[C@@H]1O [NSC2080]	102.20%
O=C1N[C@@H]2C(=C[C@H](O)[C@@H](O)[C@H]2O)c2cc3c(cc21)OCO3 [NSC349155]	100.93%
CO[C@H]1[C@@H](O)[C@@H](C)O[C@@H](OC2CCC3(C)C(CCC4C3C(O)CC3(C)C(C5=CC(=O)OC5)CCC43O)C2)[C@@H]1O (stereo partly drawn) [NSC123977]	127.41%
O=C(O)CCCCCCC[C@@H](O)[C@@H](O)CCCCCCO [NSC7668]	129.82%
CN(N=O)C(=O)N[C@@H](C=O)[C@@H](O)[C@H](O)[C@H](O)CO [NSC85998]	75.18%
O=C1N[C@@H]2C(=C[C@H](O)[C@@H](O)[C@H]2O)c2cc3c(c(O)c21)OCO3 [NSC266535]	138.97%
COc1cccc(C=O)c1O [NSC2150]	88.39%
C=C1C(=O)O[C@H]2[C@H]1[C@H](OC(=O)/C(C)=C\C)C[C@]1(CO1)[C@@H]1[C@H](OC(C)=O)C=C(C)[C@]21O [NSC104943]	118.84%
C=C1CCO[C@]2([C@@H](O)[C@@](C)(O)CO)NC(=O)[C@@]1(O)NC2=O [NSC180516]	114.16%
CC[C@]12CCCN3CC[C@]4(C(=C(C(=O)OC)C1)Nc1ccccc14)[C@@H]32 [NSC785180]	67.39%
CC(=O)O[C@@]1(C)C[C@@H]([C@H](O)CC2CC(=O)NC(=O)C2)C(=O)[C@@H](C)C1 [NSC32743]	79.33%

* * *

- target entity: IN-GCN2 interaction (6xHis-IN / GST-GCN2) (UniProt P04585+Q9P2K8)
- run description: biochemical
- Assay type: binding, HIV-1 IN; human GCN2
- reported conditions: screen, single dose 100 µM, single replicate; residual AlphaLISA signal normalized to DMSO control
Label N if IN-GCN2 interaction (%) falls below 90%; label Y in every other case.

compound	answer label
CO[C@@H]1[C@H](O)C[C@@H](O[C@H]2[C@@H](C)O[C@@H](Oc3cc(O)c4c(O)c5c(cc4c3)C[C@@H]([C@H](OC)C(=O)[C@@H](O)[C@@H](C)O)[C@H](O[C@H]3C[C@@H](O[C@H]4C[C@@H](O[C@H]6C[C@](C)(O)[C@@H](OC(=O)C(C)C)[C@H](C)O6)[C@H](O)[C@@H](C)O4)[C@H](O)[C@@H](C)O3)C5=O)C[C@H]2OC(C)=O)O[C@@H]1C	Y
COc1ccc2c(c1OC)-c1c(OC)c(OC)cc3c1[C@H](C2)N(C)CC3	N
COC(=O)C1C(O)C(C)C(O)OC1C(C)C(O)C(C)C=CC=C(C)C(=O)Nc1c(C)c(OC(C)=O)c2c(c1O)C(=O)C(C)=C1OCOC(C(C)=CC(C)=O)=C12 (stereo not drawn)	N
CC1(C)CCC2=C(O1)c1ccccc1C(=O)C2=O	Y
COc1c2occc2cc2ccc(=O)oc12	Y
CNC[C@H](O)c1ccc(O)c(O)c1	Y
COc1cc2c(c(O)c1OC)C[C@H]1c3c(c(OC)c4c(c3-2)OCO4)CCN1C	N
COC1=C(N)C(=O)c2nc(-c3nc(C(=O)O)c(C)c(-c4ccc(OC)c(OC)c4O)c3N)ccc2C1=O	N
CC(=O)Oc1ccc2ccc(=O)oc2c1OC(C)=O	Y
CC1=C2C(=CC(C)(C)[C@@H]2O)C(=O)[C@](C)(O)C12CC2	N
CO[C@@H]1/C=C/O[C@@]2(C)Oc3c(C)c(O)c4c(c3C2=O)C(=N[C@@H]2CC[C@@H](O)O[C@H]2C)C=C(NC(=O)/C(C)=C\C(=O)[C@@H]2C[C@@H]2[C@H](O)[C@@H](C)[C@@H](O)[C@@H](C)[C@H](OC(C)=O)[C@@H]1C)C4=O	Y
C1CCC(NC2CCCCC2)CC1.COC1C(OC(=O)/C=C/C=C/C=C/C=C/C(=O)O)CCC2(CO2)C1C1(C)OC1CC=C(C)C (stereo not drawn)	Y

* * *

Entries annotated with measured IN-GCN2 interaction (%)
- target entity: IN-GCN2 interaction (6xHis-IN / GST-GCN2) (UniProt P04585+Q9P2K8)
- run description: biochemical
- Assay type: binding, HIV-1 IN; human GCN2
- reported conditions: screen, single dose 100 µM, single replicate; residual AlphaLISA signal normalized to DMSO control
property: IN-GCN2 interaction (%)

> print(dat)
                                    compound  test.result
 1  COc1c2c(c(CC=C(C)C)c3oc(=O)c(-c4ccc(O)cc4)c(O)c13)OC(C)(C)C=C2       101.87
 2  CCC(C)c1cnc(CC(C)C)c(=O)n1O (stereo not shown)        88.97
 3  [O-][N+]12CCCCC1CCCC2CO (stereo not shown)        80.42
 4                       O=c1[nH]cnc2ccccc12        93.27
 5  CC1CC(O)C2C3(C)CCCC2(COC3=O)C12CCC1(CCOC1=O)O2 (stereo not shown)       134.45
 6  Oc1ccc2c(c1)OC[C@]1(O)Cc3cc(O)c(O)cc3[C@H]21        86.68
 7  COc1cccc2c1[C@H](CO)N1[C@H](C#N)[C@@H]3C[C@H](C(=O)O)[C@@H]([C@@H]1C2)N3C       110.01
 8  N=C(N)CCNC(=O)C1CCC(N)=N1 (stereo not shown)       100.21
 9  COC(=O)/C(=C1/OC(=O)C(c2ccccc2)=C1O)c1ccccc1        95.33
10  O=C1CC(c2ccccc2)Oc2ccccc21 (stereo not shown)       103.95
